Test system: CCRF-CEM leukemia
Assay Text: NCI tumour cell line growth inhibition, 48 h; in the data active = GI50 below about 0.43 µM; inactive = the rest
Classes used: active, inactive

Compound	Experimental System	Discrete Label
O=C(/C=C/c1ccc(B(O)O)cc1)/C=C/c1ccc(B(O)O)cc1	CCRF-CEM leukemia	inactive
C=C(Cn1c(=O)c2ccccc2c2ccccc21)c1ccc(C(=O)Nc2ccccc2N)cc1	CCRF-CEM leukemia	inactive
COc1cc2c(cc1OCCCN1CCN(CCCOc3cc4c(cc3OC)C(=O)N3CCC[C@H]3C=N4)CC1)C=CC(C)(C)O2	CCRF-CEM leukemia	active
CC1[C@@H]2[C@@H](C=C3C4CCC5Cc6nc7c(nc6C[C@@]5(C)C4C[C@H](O)[C@]32CO)CC2CCC3C4=C[C@H]5O[C@@]6(O[C@@](C)(CO)C[C@@H]6O)C(C)[C@@]5(O)[C@]4(C)[C@@H](O)CC3[C@]2(C)C7)O[C@]12CCC(C)(C)O2 (some centres undefined)	CCRF-CEM leukemia	active
CCCN(CCC)CCCNCc1cc(I)cc(C)c1O	CCRF-CEM leukemia	inactive
Cc1nc2sccn2c1/C=C1/C(=O)Nc2ccccc21	CCRF-CEM leukemia	inactive
Cn1cc(-c2nonc2-c2c[nH]c3ccccc23)c2ccccc21	CCRF-CEM leukemia	active
Cc1cc(C)nc(NC(N)=NCCc2ccccc2)n1	CCRF-CEM leukemia	inactive
C=CC(=O)Nc1ccc(Nc2nccc(-c3ccc(N4CCCC4)c(C#N)c3)n2)cc1	CCRF-CEM leukemia	inactive
